test: TRM-201-PK-102 single-dose four-period crossover pharmacokinetic study, fasted healthy subjects; format: in vivo, human; conditions: human, plasma, oral, 17.5 mg, 102 study, body weight 77.1-90 kg, read-out: geometric mean AUC0-∞
measure-name: AUC(0-inf) (ng·h/mL)
State just the number; it will be interpreted in ng·h/mL.

Input line: State its AUC(0-inf) for this molecule: CS(=O)(=O)c1ccc(C2=C(c3ccccc3)C(=O)OC2)cc1
Output line: 2850

* * *

experiment: 101 and 102 PK studies combined (fasted); assay type: in vivo; conditions: human, plasma, oral, 20 mg, 101 and 102 studies (FIG. 47), read-out: geometric mean AUC0-∞
measure-name: AUC(0-inf) (ng·h/mL)
Enter your answer as a number in ng·h/mL; do not include the unit.

Input line: Name the recorded AUC(0-inf) of the compound listed here: CS(=O)(=O)c1ccc(C2=C(c3ccccc3)C(=O)OC2)cc1 [TRM-201]
Output line: 3550
